The measured values listed here are drawn from PubChem BioAssay AID1974.

target: Glutathione S-transferase omega-1 (Homo sapiens); assay: inhibitors of recombinant GSTO1, primary screen, counter-screen for RBBP9 inhibitor project, biochemical, fluorescence polarization (AID 1974); settings: recombinant GSTO1, activity-based probe fluorescence polarization; at 5.96 µM; active compounds read high;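 further: 0% = GSTO1-1 with DMSO and 100% = wells lacking GSTO1-1 enzyme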
The campaign covered roughly 300,000 compounds. About 3,200 (1.1%) were called active. Many of the other results were omitted from the sample, so actives are more common in it than they were.
READOUT KIND: inhibition

For orientation, consider the following solved cases.
COc1cc(CC(=O)N/N=C/c2ccccc2)c([N+](=O)[O-])cc1OC ... -0.51% (inactive)
Cc1cc(N2CCN(S(=O)(=O)c3ccc(C)c(C)c3)CC2)c2ccccc2n1 ... -2.63% (inactive)
O=C(O)c1cccc(NC(=S)N/N=C/c2c[nH]c3ccccc23)c1 ... 48.7% (active)
Cc1cc(OCC(=O)N(C)c2c(N)n(Cc3ccccc3)c(=O)[nH]c2=O)c(C(C)C)cc1Cl ... 0.25% (inactive)
Cc1c(C)n2c(SCC(=O)N3CCCC3)nnc2[nH]c1=O ... 4.38% (inactive)
O=C(CSc1nc(=O)n2ccccc2n1)Nc1ccc2c(c1)OCCO2 ... 3.74% (inactive)
O=C(c1[nH]ncc1-c1ccc(Cl)cc1)C1CO1 (stereo not given) ... 69.7% (active)
Cc1cc(NC(=O)C(C)N2C(=O)c3ccccc3S2(=O)=O)no1 (stereo not given) ... 12.5% (inactive)

GET /values?item= O=C(N/N=C/c1c[nH]c2ccccc12)c1cc2ccccc2o1 &system= Glutathione S-transferase omega-1 (Homo sapiens) returns inhibition: -5.04% (inactive)

Cc1ccc(S(=O)(=O)CC(=O)Nc2sc(C)c(C)c2C(N)=O)cc1 tested on Glutathione S-transferase omega-1 (Homo sapiens) gave inhibition: 0.44% (inactive)

Entry CCOC(=O)c1c(C)oc2cc(Sc3ccccc3)c(O)c(O)c12 , tested on Glutathione S-transferase omega-1 (Homo sapiens), has a reported inhibition of 47.9% (active)

The molecule NC(=O)NCCCC(=O)O , when measured on Glutathione S-transferase omega-1 (Homo sapiens), yielded inhibition of 6.89% (inactive)

Cc1cccc(C(C)C)c1NC(=O)COC(=O)C1CC(=O)N(Cc2ccccc2)C1 (stereo not given) tested on Glutathione S-transferase omega-1 (Homo sapiens) gave inhibition: 7.97% (inactive)

Glutathione S-transferase omega-1 (Homo sapiens) inhibition of Cc1cc(C)cc(NC(=O)COc2coc(CN3CCN(c4ccccc4)CC3)cc2=O)c1 is -4.3% (inactive)

Param item: CCCC(=O)Nc1ncnc2c1ncn2[C@@H]1O[C@@H]2OP(=O)(O)OC[C@H]2[C@H]1OC(=O)CCC ; param system: Glutathione S-transferase omega-1 (Homo sapiens); output inhibition: -0.48% (inactive)

====

biological target: Glutathione S-transferase omega-1 (Homo sapiens) (UniProt P78417); assay: inhibitors of recombinant GSTO1, primary screen, counter-screen for RBBP9 inhibitor project, biochemical, fluorescence polarization (AID 1974); conditions: recombinant GSTO1, activity-based probe fluorescence polarization; at 5.96 µM; active compounds read high;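 further: 0% = GSTO1-1 with DMSO and 100% = wells lacking GSTO1-1 enzyme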
Sequence (P78417 whole entry, looked up): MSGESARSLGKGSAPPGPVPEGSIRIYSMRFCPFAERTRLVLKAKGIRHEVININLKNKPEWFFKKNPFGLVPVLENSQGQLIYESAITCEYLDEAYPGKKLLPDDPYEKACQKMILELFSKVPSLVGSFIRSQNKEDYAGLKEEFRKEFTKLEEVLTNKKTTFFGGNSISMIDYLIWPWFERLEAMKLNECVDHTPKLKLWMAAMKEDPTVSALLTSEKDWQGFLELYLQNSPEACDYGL
Among all 300,000 compounds or so, about 3,200 (1.1%) were called active. Only a selection was taken, and actives are over-represented in it overall.
READOUT KIND: inhibition (%)
Numeric answer only, unit % assumed.

Example results:
Cc1ccc(NC(=O)CN(C)C(=O)Cn2nnc(-c3ccccc3)n2)cc1 ... 1.43
COc1ccc(NC(=O)CSc2ncnc3[nH]ncc23)cc1 ... 36.4
O=C(OCc1nnc(-c2ccccc2)o1)c1cc(=O)[nH]c2ccccc12 ... 8.64
Cc1ccc(/C=C2\SC(=S)N(CCC(=O)Nc3ccc(O)cc3)C2=O)cc1 ... -1.64
CCc1noc(C)c1C(=O)N1CCCSC1=Nc1ccccc1OC ... -0.08

// below: inhibition requested for another molecule
Value of measured inhibition for the entry COc1ccccc1CCC(=O)OCC(=O)N1CCN(S(=O)(=O)c2ccc(C)cc2C)CC1 : 8.7
